Target: Marinobacter sp. msLacBP6 variant Y187C (187C), SEQ ID NO: 38, Badan conjugate
Assay: Fluorescence titration of conjugate
Format: binding
Conditions: read-out: appKd (lactate); λ1 539, λ2 459 nm (Table 6)
QUANTITY_KIND: Kd (µM)
// note: answer is a bare numeric in µM

Incoming: What value of Kd has been reported for the following molecule? C[C@H](O)C(=O)O [lactate]
Outgoing: 110

----------
Target: Marinobacter sp. msLacBP6 variant 187C, D220E, SEQ ID NO: 56, Badan conjugate
Test: Fluorescence titration of conjugate (affinity tuning)
Conditions: read-out: trueKd (lactate); monochromatic, 532 nm
QUANTITY_KIND: pKd
Value format note: pKd is -log10 of concentration (mol/L); just state the number.

Incoming: What value of pKd has been reported for the following compound? C[C@H](O)C(=O)O [lactate]
Outgoing: 2.51

----------
Biological target: Marinobacter sp. msLacBP6 variant G170C, SEQ ID NO: 36, Acrylodan conjugate
Experiment: Fluorescence titration of conjugate
Type: binding
Settings: read-out: appKd (lactate); λ1 518, λ2 490 nm
QUANTITY_KIND: Kd (µM)
// note: answer is a bare numeric in µM

Incoming: What value of Kd has been reported for the following molecule? C[C@H](O)C(=O)O [lactate]
Outgoing: 10

----------
Biological target: Marinobacter sp. msLacBP6 variant 187C, L70I, SEQ ID NO: 52, Acrylodan conjugate
Assay: Fluorescence titration of conjugate (affinity tuning)
Format: binding
Settings: read-out: appKd (lactate); λ1 452, λ2 582 nm
QUANTITY_KIND: Kd (µM)
// note: answer is a bare numeric in µM

Incoming: What value of Kd has been reported for the following compound? C[C@H](O)C(=O)O [lactate]
Outgoing: 400

----------
Molecular target: Marinobacter sp. msLacBP6 variant Y187C (187C), SEQ ID NO: 38, Acrylodan conjugate
Experiment: Fluorescence titration of conjugate
Format: binding
Settings: read-out: appKd (lactate), approximate; text statement for Acrylodan and Badan conjugates
pKd: −log10 of the molar value.
QUANTITY_KIND: pKd

Incoming: What value of pKd has been reported for the following compound? C[C@H](O)C(=O)O [lactate]
Outgoing: ~3.40

----------
Biological target: Marinobacter sp. msLacBP6 187C mutants (variants of Table 7)
Experiment: Affinity summary of msLacBP6 187C affinity-tuning mutants
Conditions: read-out: lactate affinities (range over variants); msLacBP6 Acrylodan and Badan conjugate variants
pKd: −log10 of the molar value.
QUANTITY_KIND: pKd

Incoming: What value of pKd has been reported for the following compound? C[C@H](O)C(=O)O [lactate]
Outgoing: 1.62 to 3.70

----------
Molecular target: Flexistipes sinusarabici fsLacBP13 variant W188C, SEQ ID NO: 47, Acrylodan conjugate (Flexistipes sinusarabici, UniProt F8E724, W211C)
Construct: Acrylodan on Cys188
Sequence (F8E724 entry or part of it W211C): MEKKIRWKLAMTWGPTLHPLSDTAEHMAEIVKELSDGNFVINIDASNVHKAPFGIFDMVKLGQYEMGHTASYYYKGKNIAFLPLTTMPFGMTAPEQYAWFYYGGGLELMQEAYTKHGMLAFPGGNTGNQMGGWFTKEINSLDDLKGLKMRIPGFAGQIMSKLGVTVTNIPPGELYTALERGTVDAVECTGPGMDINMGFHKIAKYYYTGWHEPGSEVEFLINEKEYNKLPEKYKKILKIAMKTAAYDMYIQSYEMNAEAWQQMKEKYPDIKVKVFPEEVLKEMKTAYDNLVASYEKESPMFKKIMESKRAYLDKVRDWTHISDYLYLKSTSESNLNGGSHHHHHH
Test: Fluorescence titration of conjugate
Type: binding
Conditions: read-out: trueKd (lactate); λ1 482, λ2 450 nm
pKd: −log10 of the molar value.
QUANTITY_KIND: pKd

Incoming: What value of pKd has been reported for the following compound? C[C@H](O)C(=O)O [lactate]
Outgoing: < 1.00

----------
Target: Marinobacter sp. msLacBP6 variant 187C, 70M, SEQ ID NO: 53, Acrylodan conjugate, immobilized on Ni-NTA beads
Experiment: Lactate titration of immobilized conjugate on magnetic Ni-NTA beads
Details: read-out: trueKd (lactate), λ1 452, λ2 525 nm
QUANTITY_KIND: pKd
Value format note: pKd is -log10 of concentration (mol/L); just state the number.

Incoming: What value of pKd has been reported for the following molecule? C[C@H](O)C(=O)O [lactate]
Outgoing: 2.92
